The values you see were collected from ChEMBL document CHEMBL5252581.

experiment: Selectivity index, ratio of IC50 for cytotoxicity against HEK293 cells to IC50 for antimalarial activity against multidrug resistant Plasmodium falciparum Dd2; format: toxicity, cell-based; conditions: human, read-out: Ratio IC50
Record form. Attribute: selectivity ratio. Fill in for each entry.
Give bare numbers.

smiles.string | selectivity ratio
COC(=O)c1cc2c(c(OC)c1OC)[C@H](C)C[C@@H](OC(=O)Nc1cccc(Cl)c1)[C@H]2[C@@H](C)CCC=C(C)C | 8.7
COC(=O)c1cc2c(c(OC)c1OC)[C@H](C)C[C@@H](OC(=O)Nc1ccc([N+](=O)[O-])cc1)[C@H]2[C@@H](C)CCC=C(C)C | 7.5
COC(=O)c1cc2c(c(OC)c1OC)[C@H](C)C[C@@H](OC(=O)Nc1ccc(C)cc1)[C@H]2[C@@H](C)CCC=C(C)C | 6.2
COC(=O)c1cc2c(c(OC)c1OC)[C@H](C)C[C@@H](OC(=O)Nc1cc(C(F)(F)F)cc(C(F)(F)F)c1)[C@H]2[C@@H](C)CCC=C(C)C | 6.9
COC(=O)c1cc2c(c(OC)c1OC)[C@H](C)C[C@@H](OC(=O)Nc1ccc(F)cc1)[C@H]2[C@@H](C)CCC=C(C)C | 7.4
COC(=O)c1cc2c(c(OC)c1OC)[C@H](C)C[C@@H](OC(=O)Nc1ccc(OC)cc1)[C@H]2[C@@H](C)CCC=C(C)C | 7.9
COc1ccc(C[C@H](N)C(=O)N[C@H]2[C@@H](O)[C@H](n3cnc4c(N(C)C)ncnc43)O[C@@H]2CO)cc1 | 8.2
COC(=O)c1cc2c(c(OC)c1OC)[C@H](C)C[C@@H](OC(=O)Nc1ccc(Cl)cc1)[C@H]2[C@@H](C)CCC=C(C)C | 6.1

Now look at this entry.
[ask] Please report the measured selectivity ratio for COC(=O)c1cc2c(c(OC)c1OC)[C@H](C)C[C@@H](OC(=O)Nc1ccccc1)[C@H]2[C@@H](C)CCC=C(C)C
[reply] 6.3
